Collected z-score values appear next to each entry.
Assay: hepatitis C replication reporter changes, two-sided – Huh7 cells, luciferase reporter, HCV replication inhibitor project, primary screen (AID 1109);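 further: huh7 hepatoma cells harbouring a luciferase neomycin HCV replicon reporter; luciferase luminescence as measure of HCV replicon replication; test concentration not given here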
Conditions: Huh7 HCV replicon luciferase reporter, 48 h; higher = more signal

COMPOUND	z-score
NC(=O)NCC#Cc1ccc2c(c1)[C@]1(C(=O)N2)[C@H](c2ccc(OCCO)cc2)N2[C@H](c3ccccc3)[C@H](c3ccccc3)OC(=O)[C@H]2[C@@H]1C(=O)N1CCN(c2ncccn2)CC1	-0.488
N#Cc1ccc(NN2C(C(O)c3ccccc3)C=CC3C(=O)N(c4ccccc4)C(=O)C32)cc1 (stereo not drawn)	0.335
O=C1N(CCS(=O)(=O)c2ccccc2)Cc2ccccc2C[C@@]12COC(c1ccc(OCCCO)cc1)=N2	-2.31
O=C1CSC(c2cccc([N+](=O)[O-])c2)N1c1ccccc1 (stereo not drawn)	-1.16
O=C1N(Cc2ccccc2)c2ccccc2[C@H]2OC(c3ccc(OCCCO)cc3)=N[C@@]12CCS(=O)(=O)c1ccccc1	-2.22
O=C1c2ccccc2C(=O)C2CC([C@H]3Oc4ccccc4S(=O)(=O)N4CCC[C@@H]34)=CCC12 (stereo partly drawn)	-1.34
CCN(CC)c1ccc(N2CC=CC34O[C@@H]5/C=C\CCCOC(=O)C5[C@H]3C(=O)N(CCCCCCO)[C@@H]4C2=O)cc1 (stereo partly drawn)	0.444
COc1cc(C(O)C2C=CC3C(=O)NC(=O)C3N2Nc2ccc(Cl)cc2Cl)cc(OC)c1OC (stereo not drawn)	0.221

----------
Target: Torsin-1A (Homo sapiens) (UniProt O14656)
Sequence (O14656 whole entry, looked up): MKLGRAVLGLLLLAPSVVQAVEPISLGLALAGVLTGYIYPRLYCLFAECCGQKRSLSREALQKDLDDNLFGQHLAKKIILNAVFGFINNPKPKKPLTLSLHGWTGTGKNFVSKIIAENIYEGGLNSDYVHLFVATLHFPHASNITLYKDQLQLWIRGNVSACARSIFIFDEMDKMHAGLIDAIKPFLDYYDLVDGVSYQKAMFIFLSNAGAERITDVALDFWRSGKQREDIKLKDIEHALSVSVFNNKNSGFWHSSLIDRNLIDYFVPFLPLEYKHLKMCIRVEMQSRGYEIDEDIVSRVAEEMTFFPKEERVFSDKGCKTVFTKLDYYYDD
Assay: TOR1A wild-type binding on microarray – cell lysate, small-molecule microarray, lysate, 635/667 nm, primary screen (AID 1149)
Conditions: COS7 hTOR1A-WT lysate, 635 nm fluorescence, higher = more signal
Binary call on composite z-score: t from 1 upward, f beneath that.

COMPOUND	CLASS LABEL
CCCN1C(=O)[C@@]2(Cc3ccccc3)N=C(c3ccc(OCCCO)cc3)O[C@H]2c2ccccc21	t
O=C1O[C@H](c2ccccc2)[C@H](c2ccccc2)N2[C@H]1[C@@H](C(=O)N1CCCCCCC1)[C@]1(C(=O)Nc3ccccc31)[C@H]2c1ccc(O)cc1	t
CC1CC/C=C\[C@H]2OC34C=CCN(c5ccc(Cl)cc5)C(=O)[C@H]3N(C(CO)C(C)C)C(=O)[C@]4(C)C2C(=O)O1 (stereo partly drawn)	t
COC(=O)C(CC#Cc1ccc2c(c1)[C@]1(C(=O)N2)[C@H](c2ccc(O)cc2)N2[C@H](c3ccccc3)[C@H](c3ccccc3)OC(=O)[C@H]2[C@@H]1C(N)=O)C(=O)OC	f
CCCC=C(CCC)[C@@H](NS(=O)(=O)c1ccccc1)c1ccc(C(F)(F)F)cc1	f
CCCC[C@H]1OB(O)C[C@H]2C1=C(COc1ccccc1)Cn1c(=O)n(-c3ccccc3)c(=O)n12	f
C/C=C/[C@@H](CCn1cc([C@H](O)c2ccccc2)nn1)[Si](C)(C)c1ccc(OC)cc1	f
O=C1C2C=CC(C(O)c3ccc(Br)cc3)N(Nc3ccccc3)C2C(=O)N1c1ccccc1 (stereo not drawn)	f

----------
Assay: budding yeast growth changes without added modifier – OD600, strain BY4716, 24 h, basal condition, primary screen (AID 1173)
Conditions: S. cerevisiae BY4716 growth, OD600, 24 h; higher = more signal, called active from +8 up or from −8 down
Binary call on z-score: condition met from -1 upward, condition not met beneath that.

COMPOUND	CLASS LABEL
COCCOC(=O)N1C(=O)[C@@]2(c3cc(C#CCNC(N)=O)ccc31)[C@H](C(=O)N1CCCCCCC1)[C@H]1C(=O)O[C@H](c3ccccc3)[C@H](c3ccccc3)N1[C@@H]2c1ccc(OCCO)cc1	condition met
Cc1ccc(C(C)CC(O)C2C=CC3C(=O)N(Cc4ccccc4)C(=O)C3N2n2cnnc2)o1 (stereo unspecified)	condition not met
Cc1ccc(-c2cccc(=O)o2)cc1	condition not met
CCC[C@@H]1C[C@@]1(CCC)[C@@H](NC(=O)c1ccco1)c1ccc(Cl)cc1	condition met
CCCC=C(CCC)[C@@H](NS(=O)(=O)c1ccccc1)c1ccc(C(F)(F)F)cc1	condition met
CN(C)C(=O)[C@@]1(Cc2ccccc2N=[N+]=[N-])N=C(c2ccc(OCCCO)cc2)O[C@H]1c1ccccc1N=[N+]=[N-]	condition met
O=C1NC(=O)C2C1C=CC(C(O)CCc1ccccc1)N2Nc1ccccn1 (stereo unspecified)	condition met
CC(C)(C)OC(=O)CC[C@]1(C(=O)N2CCCCC2)N=C(c2ccc(OCCCO)cc2)O[C@H]1c1ccccc1CN=[N+]=[N-]	condition met
CCCC=C(CCC)[C@@H](NC(=O)Cc1ccccc1)c1ccc(C(=O)OC)cc1	condition met
COC(=O)[C@@]1(Cc2ccccc2)[C@H]2c3cc(C(=O)N(C)C)n(Cc4ccc(O)c(OC)c4)c3C[C@H]2CN1C(=O)c1ccccc1	condition met
CC(C)c1ccc(NN2C(C(O)c3cccs3)C=CC3C(=O)N(c4ccccc4)C(=O)C32)cc1 (stereo unspecified)	condition not met
NC(=O)NCC#Cc1ccc2c(c1)[C@]1(C(=O)N2)[C@H](c2ccc(O)cc2)N2[C@H](c3ccccc3)[C@H](c3ccccc3)OC(=O)[C@H]2[C@@H]1C(=O)NC[C@H](O)c1ccccc1	condition met
C[N+](C)(C)CCCC[C@@H]1NC(=O)[C@@H]2C[C@H](C(=O)NCCCCCNC(=O)CS)[C@H](c3cccc(OCCO)c3)N2C1=O	condition met
C=C(/C(=C/C[C@@H](OC(=O)c1ccncc1)c1ccccc1OCCO)c1cnc2ccccc2c1)C(C)C	condition not met
C=CC[C@]1(C(=O)N(C)C)N=C(c2ccc(OCCCO)cc2)O[C@H]1c1ccccc1	condition not met
